Measured values drawn from patent US7674816B2 for this set.

Tested on: GABAA α-1 site
Assay: GABAA alpha 1 site competitive binding (3H-flunitrazepam)
Details: Conc. 1.0E−4 M, bovine hippocampus
Experimental: The binding profile of exemplary inventive compounds to neurotransmitter receptor sites is set forth below in Table 1. […] The melatonin binding site on GABAA was defined using a series of competitive binding assays. […] The amount of radioactivity remained on the Whatman filter following filtration of the reaction mix and two washes with assay buffer was determined using a liquid scintillation counter. […]
Parameter Specific binding, GABAA Alpha 1 site (inhibition of radioactive ligand binding): see the listing below.
Hi! Could you send only the number? It should be in %, unit omitted.

Worked cases, Specific binding, GABAA Alpha 1 site (inhibition of radioactive ligand binding) given:
MOLECULE | TARGET_ENTITY | TEST_VALUE
COc1ccc(-c2[nH]c3ccc(OC)cc3c2CCNC(C)=O)cc1 | GABAA α-1 site | −8.16
CC(C)c1cccc(C(C)C)c1O [2,6-Diisopropylphenol, reference compound] | GABAA α-1 site | −14.31
COc1ccc2[nH]c(-c3ccc(C(F)(F)F)cc3)c(CCNC(C)=O)c2c1 | GABAA α-1 site | 8.11
CC(=O)NCCc1c(Cc2ccccc2)[nH]c2ccccc12 [Luzindole, reference compound] | GABAA α-1 site | 5.09

Return reported Specific binding, GABAA Alpha 1 site (inhibition of radioactive ligand binding); argument: COc1ccc2[nH]c(-c3ccc(F)cc3)c(CCNC(C)=O)c2c1
28.80
